Provenance of the data: ChEMBL document CHEMBL1926548

# experiment notes: Antioxidant activity in 0.05 M phosphate buffered saline assessed as trolox equivalents of ABTS radical scavenging activity after 6 mins by TEAC assay
# Assay type: functional
// label = Condition met if Ratio is not less than 0.4, otherwise Condition not met

# smi, class
data = [
    ("CC1(C)c2ccc(/C=C/c3cc(O)cc(O)c3)cc2C(C)(C)N1O", "Condition met"),
    ("COc1cc(/C=C/C2=CC(C)(C)N(O)C(C)(C)C2)cc(OC)c1", "Condition not met"),
    ("Oc1ccc(/C=C/c2cc(O)cc(O)c2)cc1", "Condition met"),
    ("COc1cc(/C=C/C2=CC(C)(C)NC(C)(C)C2)cc(OC)c1", "Condition not met"),
    ("CC1(C)C=C(/C=C/c2cc(O)cc(O)c2)CC(C)(C)N1O", "Condition met"),
    ("CC1(C)C=C(/C=C/C2=CC(C)(C)N(O)C(C)(C)C2)CC(C)(C)N1O", "Condition not met"),
]

---

# Test system: RAW264.7
# experiment notes: Antiinflammatory activity in mouse RAW264.7 cells assessed as inhibition of LPS-induced TNF-alpha production at 50 uM after 1.5 hrs by ELISA
# Format: functional, cell-based
Active and inactive are the calls of the source. No cut-off for these calls is given here.
Outcome codes: active, inactive

# smi, class
measured = [
    ("CC1(C)C=C(/C=C/C2=CC(C)(C)N([O])C(C)(C)C2)CC(C)(C)N1[O]", "active"),
    ("CC1(C)C=C(/C=C/c2cc(O)cc(O)c2)CC(C)(C)N1[O]", "active"),
    ("Oc1ccc(/C=C/c2cc(O)cc(O)c2)cc1", "active"),
    ("CC1(C)C(c2ccc(O)cc2)=C(c2cc(O)cc(O)c2)C(C)(C)N1[O]", "inactive"),
    ("COc1cc(OC)cc(C2=C(c3cc(OC)cc(OC)c3)C(C)(C)NC2(C)C)c1", "active"),
    ("CC1(C)c2ccc(/C=C/c3cc(O)cc(O)c3)cc2C(C)(C)N1[O]", "active"),
    ("COc1cc(/C=C/C2=CC(C)(C)NC(C)(C)C2)cc(OC)c1", "active"),
]
